Listed here: items and their measured pKi.
Target: UniProt O00519
Sequence (O00519 whole entry): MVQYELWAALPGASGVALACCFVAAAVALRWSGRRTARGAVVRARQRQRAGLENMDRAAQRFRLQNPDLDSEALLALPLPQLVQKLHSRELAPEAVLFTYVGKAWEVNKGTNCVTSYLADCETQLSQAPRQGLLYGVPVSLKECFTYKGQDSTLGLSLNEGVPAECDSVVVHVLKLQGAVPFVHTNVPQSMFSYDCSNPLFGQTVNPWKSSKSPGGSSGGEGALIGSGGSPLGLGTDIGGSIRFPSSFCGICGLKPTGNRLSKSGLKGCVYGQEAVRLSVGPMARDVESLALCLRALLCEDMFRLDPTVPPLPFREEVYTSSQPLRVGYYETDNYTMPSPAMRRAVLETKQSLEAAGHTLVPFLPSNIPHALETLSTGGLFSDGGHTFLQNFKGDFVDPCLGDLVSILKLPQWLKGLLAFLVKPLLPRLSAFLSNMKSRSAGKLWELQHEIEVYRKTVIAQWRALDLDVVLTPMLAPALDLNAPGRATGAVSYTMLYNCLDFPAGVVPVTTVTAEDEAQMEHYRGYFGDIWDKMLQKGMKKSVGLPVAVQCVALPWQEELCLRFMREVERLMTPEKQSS
Test: Binding affinity for fatty acid amide hydrolase
pKi (log units): -log10 of the concentration in mol/L.

# annotated cases, reported pKi shown
- Compound: "CCCCCCCC/C=C\\CCCCCCC(C)C(=O)c1nc2ncccc2o1 (stereo not given)"
  pKi: 8.04
- Compound: "CCCCC/C=C\\C/C=C\\C/C=C\\C/C=C\\CCCC(=O)c1nc2ncccc2o1"
  pKi: 9.00
- Compound: "CCCCCCCC/C=C\\CCCCCCCC(=O)c1nc2ncccc2o1"
  pKi: 8.64
- Compound: "O=C(CCCCCCCc1ccccc1)C(F)(F)F"
  pKi: 7.60

Next:
The reported pKi of the compound CCCCCCCC/C=C\CCCCCCCC(=O)C(F)(F)F was 8.92

* * *

Biological target: Fatty-acid amide hydrolase 1 (Homo sapiens)
Sequence (O00519 whole entry): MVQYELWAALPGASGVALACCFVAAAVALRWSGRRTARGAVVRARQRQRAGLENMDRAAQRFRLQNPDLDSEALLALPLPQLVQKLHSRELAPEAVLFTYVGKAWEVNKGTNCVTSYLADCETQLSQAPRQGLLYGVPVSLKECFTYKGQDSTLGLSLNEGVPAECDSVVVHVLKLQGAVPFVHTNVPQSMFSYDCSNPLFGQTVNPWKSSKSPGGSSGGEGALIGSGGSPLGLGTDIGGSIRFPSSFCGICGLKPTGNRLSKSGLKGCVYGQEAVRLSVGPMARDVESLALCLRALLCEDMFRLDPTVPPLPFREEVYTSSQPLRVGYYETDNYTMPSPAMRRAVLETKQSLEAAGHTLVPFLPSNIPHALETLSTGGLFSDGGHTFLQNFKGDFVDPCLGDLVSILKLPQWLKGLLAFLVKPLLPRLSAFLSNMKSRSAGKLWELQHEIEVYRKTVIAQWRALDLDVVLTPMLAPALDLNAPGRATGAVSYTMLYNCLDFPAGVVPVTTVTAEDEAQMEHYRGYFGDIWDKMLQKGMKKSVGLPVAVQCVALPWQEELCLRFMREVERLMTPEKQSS
Assay: Inhibition of fatty acid amide hydrolase; range = 4.1-7 uM
Test Readout: pIC50
pIC50 (log units): -log10 of the concentration in mol/L.

The reported pIC50 of the compound CCCCC/C=C\C/C=C\C/C=C\C/C=C\CCCC(=O)NCC(=O)O [ARACHIDONOYL GLYCINE] was 5.15

* * *

Target: Fatty-acid amide hydrolase 1 (Homo sapiens)
Test: Apparent binding affinity for fatty acid amide hydrolase
Test Readout: Ki (nM)
I only need the number, in nM, no unit after it.

I looked up CCCCCCCc1ccc(CCCCCCC(=O)C(F)(F)F)cc1 and its Ki for Fatty-acid amide hydrolase 1 (Homo sapiens) was 96

* * *

Biological target: Fatty-acid amide hydrolase 1 (Homo sapiens)
Assay: Irreversible inhibition of fatty acid amide hydrolase; range=. 5-6 nM
Test Readout: pIC50
pIC50 (log units): -log10 of the concentration in mol/L.

The reported pIC50 of the compound CCCCC/C=C\C/C=C\C/C=C\C/C=C\CCCC(=O)[CH-][N+]#N was 8.22

* * *

Target: Fatty-acid amide hydrolase 1 (Homo sapiens, UniProt O00519)
Assay: Inhibitory concentration against fatty acid amide hydrolase
Test Readout: IC50 (µM)
I only need the number, in µM, no unit after it.

# annotated cases, reported IC50 shown
- Compound: "O=C(CCCCCCc1ccccc1)c1nc2ncccc2o1"
  IC50 (µM): 0.0021
- Compound: "CCCCC/C=C\\C/C=C\\CC/C=C\\CCCC(=O)NCCc1ccc(O)c(O)c1"
  IC50 (µM): 19

The reported IC50 of the compound CCCCCCCCCCCCCCCC(=O)NC(C)C [HEXADECANOIC ACID ISOPROPYLAMIDE] was 0.013

* * *

Target: Fatty-acid amide hydrolase 1 (Homo sapiens, UniProt O00519)
Experiment: Inhibitory concentration against fatty acid amide hydrolase
Test Readout: IC50

- Compound: "CC(C)(/C=C\\C/C=C\\C/C=C\\C/C=C\\CCCC(=O)OCC(O)CO)CCCCO (centres undefined)"
  Target Or Test System: "Fatty-acid amide hydrolase 1 (Homo sapiens, UniProt O00519)"
  IC50: "~11 µM"
- Compound: "CC(C)(/C=C\\C/C=C\\C/C=C\\C/C=C\\CCCC(=O)OCC(O)CO)CCCCC#N (centres undefined)"
  Target Or Test System: "Fatty-acid amide hydrolase 1 (Homo sapiens, UniProt O00519)"
  IC50: "~11 µM"
- Compound: "CCCCC/C=C\\C/C=C\\C/C=C\\C/C=C\\CCCC(=O)OCCO"
  Target Or Test System: "Fatty-acid amide hydrolase 1 (Homo sapiens, UniProt O00519)"
  IC50: "> 25 µM"

Next:
I looked up CCCCC/C=C\C/C=C\C/C=C\C/C=C\CCC(C)C(=O)OCC(O)CO (centres undefined) and its IC50 for Fatty-acid amide hydrolase 1 (Homo sapiens, UniProt O00519) was ~11 µM

Data provenance: ChEMBL document CHEMBL1140350
